assayed-target: Forkhead box protein O1 (Homo sapiens)
Sequence (Q12778 whole entry): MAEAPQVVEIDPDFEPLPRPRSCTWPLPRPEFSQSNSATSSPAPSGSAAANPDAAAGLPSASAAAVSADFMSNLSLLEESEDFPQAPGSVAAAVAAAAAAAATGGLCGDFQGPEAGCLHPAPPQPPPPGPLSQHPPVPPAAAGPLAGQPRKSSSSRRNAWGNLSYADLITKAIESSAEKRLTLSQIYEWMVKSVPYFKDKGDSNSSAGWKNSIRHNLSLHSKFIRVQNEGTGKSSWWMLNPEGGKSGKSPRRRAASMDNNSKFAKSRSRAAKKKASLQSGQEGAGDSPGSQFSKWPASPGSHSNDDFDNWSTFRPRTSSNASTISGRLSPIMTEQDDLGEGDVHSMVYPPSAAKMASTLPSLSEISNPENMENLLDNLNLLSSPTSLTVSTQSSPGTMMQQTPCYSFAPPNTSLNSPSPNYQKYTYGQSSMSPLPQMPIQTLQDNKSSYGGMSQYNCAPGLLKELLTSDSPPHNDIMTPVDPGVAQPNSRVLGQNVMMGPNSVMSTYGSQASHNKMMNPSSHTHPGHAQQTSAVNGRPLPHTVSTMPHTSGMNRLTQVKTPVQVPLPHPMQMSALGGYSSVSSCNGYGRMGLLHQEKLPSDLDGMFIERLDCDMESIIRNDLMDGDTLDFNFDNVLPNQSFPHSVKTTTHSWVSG
assay-name: Inhibition of FOXO1a nuclear export in PTEN-deficient cells
metric: IC50 (µM)
Express it in µM; write the number only.

Give the measured IC50 of CNCCCOc1c(Br)cc(/C=C/C(=O)NCCCOc2c(Br)cc(CCN(C)C)cc2Br)cc1Br [psammaplysene B] .
20

What does the record list as IC50 for CN(C)CCCOc1c(Br)cc(/C=C/C(=O)NCCCOc2c(Br)cc(CCN(C)C)cc2Br)cc1Br [psammaplysene A] ?
5
